src = patent US7884117B2

- System: PAK4 Kinase domain (PAK4 KD) (Homo sapiens, UniProt O96013)
- Construct: Cloning, expression, and purification of recombinant PAK4 Kinase domain (PAK4 KD); His tag (pET28a(+)/pET24a(+), Ni-NTA purification) (N, cleaved yes); GST (pGST4.5, glutathione column) (N, cleaved yes)
- Sequence (O96013 321-572 limits assumed): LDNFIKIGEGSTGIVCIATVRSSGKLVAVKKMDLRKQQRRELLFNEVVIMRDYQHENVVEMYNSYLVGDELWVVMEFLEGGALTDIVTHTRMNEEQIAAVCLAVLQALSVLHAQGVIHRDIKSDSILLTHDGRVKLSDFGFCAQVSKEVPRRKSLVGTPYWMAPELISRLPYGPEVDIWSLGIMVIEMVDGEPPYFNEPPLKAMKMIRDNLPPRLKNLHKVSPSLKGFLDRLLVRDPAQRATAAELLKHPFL
- Assay Comment: PAK4 kinase domain enzymatic assay (PK/LDH-coupled, Ki)
- Test Context: PAK4 Kinase Domain
pKi: −log10 of the molar value.
Quantity Name: pKi

These recorded examples may help you get a feel for the data.
# Compound, pKi
records = [
    ("COc1ccc(CC(=O)Nc2n[nH]c3c2CN(C(=O)N[C@@H]2C[C@H]2c2ccccc2)C3(C)C)cc1 (relative stereo)", 6.95),
    ("C[C@@H](CN(C)C)OC(=O)N1Cc2c(NC(=O)c3ccccc3)n[nH]c2C1(C)C", 6.45),
    ("CN(C)C[C@@H](OC(=O)N1Cc2c(NC(=O)c3ccc(F)cc3F)n[nH]c2C1(C)C)c1ccccc1", 7.17),
    ("CC(C)[C@@H](CN(C)C)OC(=O)N1Cc2c(NC(=O)c3ccccc3)n[nH]c2C1(C)C", 6.32),
]

P. COC[C@@H](NC(=O)N1Cc2c(NC(=O)c3ccccc3)n[nH]c2C1(C)C)c1ccccc1
Q. CC(C)C[C@@H](CN(C)C)OC(=O)N1Cc2c(NC(=O)c3ccc(C(F)(F)F)cc3)n[nH]c2C1(C)C
R. CN(C)CC(CC(=O)N1Cc2c(NC(=O)c3ccccc3)n[nH]c2C1(C)C)c1ccc(Cl)cc1 (stereo not drawn)
S. CC1(C)c2[nH]nc(NC(=O)c3cccs3)c2CN1C(=O)N[C@H]1C[C@@H]1c1ccccc1 (relative stereo)
T. CN(C)C[C@@H](OC(=O)N1Cc2c(NC(=O)[C@@H]3C[C@H]3c3ccccc3)n[nH]c2C1(C)C)c1ccccc1
# rank by pKi, ascending (min first) Lab note: record answer as labels in requested order. P, R, Q, S, T
(P: 6.33, R: 6.71, Q: 7.02, S: 7.71, T: 8.09)
